System: estrogen receptor (ERE-tk-luc reporter) in MCF-7 cells
Assay: ERE-tk-luc luciferase transactivation assay in MCF-7 cells
Format: cell-based, human
Conditions: MCF-7, 10 μM compound, 24 h, RLU normalized to no compound added
Where a SMILES comes first, the peptide text is derived from it. The star is where a group is joined. Cbz = O=C(OCc1ccccc1)*
result.type: fold transactivation induction (transactivation potential)

- molecule: "O=C(c1ccc(OCCN2CCCCC2)cc1)c1c(-c2ccc(O)cc2)sc2cc(O)ccc12 [raloxifene]"
  value.observed: 0.89
- molecule: "CC#C[C@]1(O)CC[C@H]2[C@@H]3CCC4=CC(=O)CCC4=C3[C@@H](c3ccc(N(C)C)cc3)C[C@@]21C [RU486]"
  value.observed: 0.4
- molecule: "CC(C)C[C@H](NC(=O)[C@H](Cc1ccccc1)NC(=O)c1cnccn1)B(O)O [bortezomib]"
  value.observed: 0.78
- molecule: "C[C@]12CC[C@@H]3c4ccc(O)cc4C[C@@H](CCCCCCCCC[S+]([O-])CCCC(F)(F)C(F)(F)F)[C@H]3[C@@H]1CC[C@@H]2O (some centres unmarked) [ICI 182,780]"
  value.observed: 0.24
- molecule: "CC(C)C[C@@H](C=O)NC(=O)[C@H](CC(C)C)NC(=O)[C@H](CC(C)C)NC(=O)OCc1ccccc1 [MG132] (Cbz-Leu-Leu-Leu-aldehyde)"
  value.observed: 0.61

----------
# reported EC50; entries follow
Biological target: GFP-GRER chimera (N-terminus of the glucocorticoid receptor fused to the human ERα ligand binding domain) (Homo sapiens, UniProt P03372)
Sequence (P03372 302-595, change not shown): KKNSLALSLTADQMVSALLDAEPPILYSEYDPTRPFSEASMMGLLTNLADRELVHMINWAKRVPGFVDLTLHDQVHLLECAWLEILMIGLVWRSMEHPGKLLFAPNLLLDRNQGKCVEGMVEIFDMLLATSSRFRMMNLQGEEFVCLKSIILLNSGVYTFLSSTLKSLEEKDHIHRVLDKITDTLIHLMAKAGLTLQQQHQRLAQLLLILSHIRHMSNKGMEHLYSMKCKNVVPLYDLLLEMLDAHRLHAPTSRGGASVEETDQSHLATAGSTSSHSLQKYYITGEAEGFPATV
Sequence (P06536 1-565, change not shown, further chain): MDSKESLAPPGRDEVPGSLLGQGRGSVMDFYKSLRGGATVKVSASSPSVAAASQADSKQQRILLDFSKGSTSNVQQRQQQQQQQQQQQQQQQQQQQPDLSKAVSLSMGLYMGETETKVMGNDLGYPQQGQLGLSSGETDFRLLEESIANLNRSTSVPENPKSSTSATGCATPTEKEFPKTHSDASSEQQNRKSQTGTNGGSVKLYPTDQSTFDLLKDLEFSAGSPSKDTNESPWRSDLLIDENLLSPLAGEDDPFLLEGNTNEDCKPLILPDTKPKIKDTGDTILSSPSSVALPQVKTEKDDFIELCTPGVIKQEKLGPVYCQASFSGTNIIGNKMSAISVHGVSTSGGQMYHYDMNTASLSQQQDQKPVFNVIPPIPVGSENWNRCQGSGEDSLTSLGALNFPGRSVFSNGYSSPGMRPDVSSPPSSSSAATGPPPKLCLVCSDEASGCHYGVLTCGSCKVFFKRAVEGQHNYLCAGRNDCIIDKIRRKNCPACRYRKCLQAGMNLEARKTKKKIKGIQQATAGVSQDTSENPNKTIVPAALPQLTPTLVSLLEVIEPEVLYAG
Test: GFP-GRER nuclear translocation high-content imaging assay in 6020 cells
Where a SMILES comes first, the peptide text is derived from it. The star is where a group is joined. Cbz = O=C(OCc1ccccc1)*

- molecule: "CC(C)C[C@H](NC(=O)[C@H](Cc1ccccc1)NC(=O)c1cnccn1)B(O)O"
  EC50 [nM]: 37
- molecule: "CC(C)C[C@@H](C=O)NC(=O)[C@H](CC(C)C)NC(=O)[C@H](CC(C)C)NC(=O)OCc1ccccc1 [MG132] (Cbz-Leu-Leu-Leu-aldehyde)"
  EC50 [nM]: 192
